Hello, the source for this data is patent US12122763B2, in case you need it.

target: Androgen Receptor (AR) protein (Homo sapiens, UniProt P10275, T878A); construct: endogenous in cells; host or cells: LNCaP; assay: Androgen Receptor (AR) protein degradation assay in LNCaP cells, western blotting; format: cell-based; conditions: 20 h, 0.01 μM compound
Sequence (P10275 whole entry T878A): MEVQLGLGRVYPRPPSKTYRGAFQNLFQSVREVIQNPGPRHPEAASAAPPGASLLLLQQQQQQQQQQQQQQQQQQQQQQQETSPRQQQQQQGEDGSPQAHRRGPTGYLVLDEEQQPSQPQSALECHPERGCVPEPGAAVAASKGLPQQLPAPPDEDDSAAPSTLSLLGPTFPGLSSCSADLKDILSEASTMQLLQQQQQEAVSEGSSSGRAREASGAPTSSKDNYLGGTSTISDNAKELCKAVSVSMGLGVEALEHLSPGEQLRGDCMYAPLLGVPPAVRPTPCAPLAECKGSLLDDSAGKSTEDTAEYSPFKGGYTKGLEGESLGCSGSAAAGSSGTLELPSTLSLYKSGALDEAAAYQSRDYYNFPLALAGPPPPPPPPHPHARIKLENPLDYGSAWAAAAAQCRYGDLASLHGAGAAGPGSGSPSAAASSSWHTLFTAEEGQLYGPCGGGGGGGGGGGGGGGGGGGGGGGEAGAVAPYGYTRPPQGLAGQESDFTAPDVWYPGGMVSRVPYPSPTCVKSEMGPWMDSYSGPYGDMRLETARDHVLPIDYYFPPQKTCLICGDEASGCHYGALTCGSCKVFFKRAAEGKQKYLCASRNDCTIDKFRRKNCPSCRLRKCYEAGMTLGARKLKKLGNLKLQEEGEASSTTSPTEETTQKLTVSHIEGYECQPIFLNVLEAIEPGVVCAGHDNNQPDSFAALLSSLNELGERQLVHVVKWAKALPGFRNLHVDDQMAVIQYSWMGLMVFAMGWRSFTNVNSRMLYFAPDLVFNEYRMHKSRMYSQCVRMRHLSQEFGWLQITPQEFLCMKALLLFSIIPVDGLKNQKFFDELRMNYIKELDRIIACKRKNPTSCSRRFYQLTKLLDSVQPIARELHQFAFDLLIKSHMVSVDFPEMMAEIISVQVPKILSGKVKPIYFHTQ
Sequence (Q96SW2 whole entry partner): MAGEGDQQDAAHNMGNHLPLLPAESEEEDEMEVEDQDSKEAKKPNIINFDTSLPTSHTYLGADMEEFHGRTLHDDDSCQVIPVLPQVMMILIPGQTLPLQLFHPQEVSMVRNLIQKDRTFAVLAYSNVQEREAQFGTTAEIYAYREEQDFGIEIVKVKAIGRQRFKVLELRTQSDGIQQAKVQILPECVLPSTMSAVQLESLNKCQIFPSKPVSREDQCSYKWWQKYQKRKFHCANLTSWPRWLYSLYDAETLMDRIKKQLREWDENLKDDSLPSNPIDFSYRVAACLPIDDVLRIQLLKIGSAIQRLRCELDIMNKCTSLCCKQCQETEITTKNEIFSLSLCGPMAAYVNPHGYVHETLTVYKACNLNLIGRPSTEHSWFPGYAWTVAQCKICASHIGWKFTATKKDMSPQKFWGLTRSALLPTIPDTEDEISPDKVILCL
measurement-type: inhibition at 0.01 µM (%)

[
  {
    "molecule": "CC1(CN2CCN(CC3CCN(c4ccc5c(c4)C(=O)N(C4CCC(=O)NC4=O)C5=O)CC3)CC2)CN(c2ccc(NC(=O)C3CCN(c4ccc(C#N)c(C(F)(F)F)c4)CC3)nc2)C1 (centres unmarked)",
    "result-number": 73
  },
  {
    "molecule": "N#Cc1ccc(N2CCN(C(=O)Nc3ccc(N4CCC(CN5CC6(CCN(c7ccc8c(c7)C(=O)N(C7CCC(=O)NC7=O)C8=O)CC6)C5)CC4)nc3)CC2)cc1C(F)(F)F (centres unmarked)",
    "result-number": -9
  },
  {
    "molecule": "N#Cc1ccc(N2CCC(C(=O)Nc3ccc(N4CCC(CN5CCN(C[C@H]6CCN(c7ccc8c(c7)C(=O)N(C7CCC(=O)NC7=O)C8=O)C6)CC5)CC4)cc3)CC2)cc1C(F)(F)F (some centres unmarked)",
    "result-number": 1
  },
  {
    "molecule": "N#Cc1ccc(N2CCC(C(=O)Nc3ccc(N4CCC(CN5CCN(CC6CCN(c7ccc8c(c7)C(=O)N(C7CCC(=O)NC7=O)C8=O)CC6)CC5)CC4)cc3)CC2)cc1C(F)(F)F (centres unmarked)",
    "result-number": 47
  },
  {
    "molecule": "N#Cc1ccc(N2CCC(C(=O)Nc3ccc(OCCC4CCN(CC5CCN(c6ccc7c(c6)C(=O)N(C6CCC(=O)NC6=O)C7=O)CC5)CC4)cn3)CC2)cc1C(F)(F)F (centres unmarked)",
    "result-number": 70
  }
]
